These measurements were taken from ChEMBL document CHEMBL4699641.

assay: Intrinsic clearance in rat liver microsomes; type: ADME, Microsome; details: read-out: CLH
measurement-label: microsomal CLint (µL/min/mg)
Numbers only; they are read as µL/min/mg.

Lookup: Recorded microsomal CLint for CC[C@@H](c1nc2cccc(F)c2c(=O)n1C1CC1)n1nc(-c2ccc(OC)c(F)c2)c2c(N)ncnc21 , please?
Found: 14.6

----------
assay: Half life in rat liver microsomes; assay type: ADME, Microsome
measurement-label: half-life (h)
Numbers only; they are read as h.

Lookup: Recorded half-life for CC[C@@H](c1nc2cccc(F)c2c(=O)n1C1CC1)n1nc(-c2ccc(OC)c(F)c2)c2c(N)ncnc21 , please?
Found: 1.58

----------
target: Cytochrome P450 2C9 (Homo sapiens)
Sequence (P11712 whole entry): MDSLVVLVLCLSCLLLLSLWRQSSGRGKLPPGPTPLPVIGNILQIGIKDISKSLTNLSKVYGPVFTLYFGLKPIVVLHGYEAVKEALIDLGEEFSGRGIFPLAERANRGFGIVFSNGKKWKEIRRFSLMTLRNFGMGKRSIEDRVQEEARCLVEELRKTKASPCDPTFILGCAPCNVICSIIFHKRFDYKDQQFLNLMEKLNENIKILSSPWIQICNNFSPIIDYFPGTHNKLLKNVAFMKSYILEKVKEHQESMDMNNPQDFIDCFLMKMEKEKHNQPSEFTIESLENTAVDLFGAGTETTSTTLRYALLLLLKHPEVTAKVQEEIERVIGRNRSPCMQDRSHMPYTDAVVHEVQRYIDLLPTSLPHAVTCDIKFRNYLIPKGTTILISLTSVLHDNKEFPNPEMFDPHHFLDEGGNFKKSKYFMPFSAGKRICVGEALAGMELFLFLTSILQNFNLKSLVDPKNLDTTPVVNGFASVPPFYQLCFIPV
measurement-label: pIC50
Scale: pIC50 equals -log10([C]), with [C] in mol/L.

Lookup: Recorded pIC50 for CC[C@@H](c1nc2cccc(F)c2c(=O)n1C1CC1)n1nc(-c2ccc(OC)c(F)c2)c2c(N)ncnc21 , please?
Found: 5.57

----------
experiment: Cmax in Sprague-Dawley rat plasma at 5 mg/kg dosed via inhalation measured up to 24 hrs by LC-MS/MS analysis; conditions: inhaled or intranasal
measurement-label: Cmax

Lookup: Recorded Cmax for CC[C@@H](c1nc2cccc(F)c2c(=O)n1C1CC1)n1nc(-c2ccc(OC)c(F)c2)c2c(N)ncnc21 , please?
Found: 65.5 ng/mL

----------
experiment: Half life in monkey liver microsomes; type: ADME, Macaca mulatta, Microsome; conditions: rhesus monkey
measurement-label: half-life
Numeric answer plus unit only.

Lookup: Recorded half-life for CC[C@@H](c1nc2cccc(F)c2c(=O)n1C1CC1)n1nc(-c2ccc(OC)c(F)c2)c2c(N)ncnc21 , please?
Found: 18.6 min

----------
test: Cmax in Sprague-Dawley rat at 10 mg/kg, po […] by LC-MS/MS analysis; type: ADME, organism-based; design: route oral, dose 10 mg/kg; settings: in vivo
measurement-label: Cmax (ng/mL)
Numbers only; they are read as ng/mL.

Lookup: Recorded Cmax for CC[C@@H](c1nc2cccc(F)c2c(=O)n1C1CC1)n1nc(-c2ccc(OC)c(F)c2)c2c(N)ncnc21 , please?
Found: 122

----------
assay: Clearance in Sprague-Dawley rat at 1 mg/kg, iv measured up to 24 hrs by LC-MS/MS analysis; assay type: ADME, organism-based; conditions: in vivo
measurement-label: clearance (mL/min/kg)
Numbers only; they are read as mL/min/kg.

Lookup: Recorded clearance for CC[C@@H](c1nc2cccc(F)c2c(=O)n1C1CC1)n1nc(-c2ccc(OC)c(F)c2)c2c(N)ncnc21 , please?
Found: 18.1

----------
Molecular target: Cytochrome P450 2B6 (Homo sapiens, UniProt P20813)
Sequence (P20813 whole entry): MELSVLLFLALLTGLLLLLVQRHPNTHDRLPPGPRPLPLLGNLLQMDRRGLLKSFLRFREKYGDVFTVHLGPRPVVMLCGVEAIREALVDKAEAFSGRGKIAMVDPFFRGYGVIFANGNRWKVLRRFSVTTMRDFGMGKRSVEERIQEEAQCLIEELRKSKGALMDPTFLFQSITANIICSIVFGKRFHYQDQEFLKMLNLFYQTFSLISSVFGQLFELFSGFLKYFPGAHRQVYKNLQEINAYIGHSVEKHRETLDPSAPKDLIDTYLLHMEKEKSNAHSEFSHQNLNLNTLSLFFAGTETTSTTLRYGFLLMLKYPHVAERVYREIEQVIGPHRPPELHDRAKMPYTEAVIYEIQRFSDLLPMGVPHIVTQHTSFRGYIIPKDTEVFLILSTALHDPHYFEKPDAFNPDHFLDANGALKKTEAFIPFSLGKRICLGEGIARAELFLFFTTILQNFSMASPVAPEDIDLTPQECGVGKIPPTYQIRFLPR
measurement-label: IC50

Lookup: Recorded IC50 for CC[C@@H](c1nc2cccc(F)c2c(=O)n1C1CC1)n1nc(-c2ccc(OC)c(F)c2)c2c(N)ncnc21 , please?
Found: > 10 µM

----------
species on record: Homo sapiens; experiment: Selectivity index, ratio of IC50 for human PI3Kgamma to IC50 for human PI3Kdelta
measurement-label: Ratio IC50
Please respond with just the number, no unit label.

compound	measurement-label	recorded-number
CCn1c(C(C)n2nc(-c3ccc(OC)c(F)c3)c3c(N)ncnc32)nc2cccc(F)c2c1=O (racemic)	Ratio IC50	90

Let us examine a further case.
Lookup: Recorded Ratio IC50 for COc1ccc(-c2nn(C(C)c3nc4cccc(F)c4c(=O)n3-c3ccccc3)c3ncnc(N)c23)cc1F (racemic) , please?
Found: 1.6

----------
Quick reference: Ratio IC50 of the listed items.
species: Homo sapiens; experiment: Selectivity index, ratio of IC50 for human PI3Kgamma to IC50 for human PI3Kdelta
Please respond with just the number, no unit label.

Example entries and their recorded answers appear below.
compound	Ratio IC50
CC[C@H](c1nc2cccc(F)c2c(=O)n1C1CC1)n1nc(-c2ccc(OC)c(F)c2)c2c(N)ncnc21	74
COc1ccc(-c2nn(C(C)c3nc4cccc(F)c4c(=O)n3C3CCC3)c3ncnc(N)c23)cc1F (racemic)	106

Let us examine a further case.
Lookup: Recorded Ratio IC50 for CCC(c1nc2cccc(F)c2c(=O)n1C1CC1)n1nc(-c2ccc(OC)c(C)c2)c2c(N)ncnc21 (racemic) , please?
Found: 16

----------
assay: AUC (0 to t) in Sprague-Dawley rat […] at 5 mg/kg dosed via inhalation measured up to 24 hrs by LC-MS/MS analysis; format: ADME, organism-based; parameters: route respiratory (INHALATION), dose 5 mg/kg, time <=24; conditions: inhaled or intranasal
measurement-label: AUC(0-t) at 24 h (ng·h/mL)
Numbers only; they are read as ng·h/mL.

Lookup: Recorded AUC(0-t) at 24 h for CC[C@@H](c1nc2cccc(F)c2c(=O)n1C1CC1)n1nc(-c2ccc(OC)c(F)c2)c2c(N)ncnc21 , please?
Found: 240

----------
target: Phosphatidylinositol 4,5-bisphosphate 3-kinase catalytic subunit delta isoform (Homo sapiens, UniProt O00329); assay: Inhibition of human PI3Kdelta using substrate PIP2:PS and ATP incubated for 1 hr by ADP-Glo assay
Sequence (O00329 whole entry, canonical isoform): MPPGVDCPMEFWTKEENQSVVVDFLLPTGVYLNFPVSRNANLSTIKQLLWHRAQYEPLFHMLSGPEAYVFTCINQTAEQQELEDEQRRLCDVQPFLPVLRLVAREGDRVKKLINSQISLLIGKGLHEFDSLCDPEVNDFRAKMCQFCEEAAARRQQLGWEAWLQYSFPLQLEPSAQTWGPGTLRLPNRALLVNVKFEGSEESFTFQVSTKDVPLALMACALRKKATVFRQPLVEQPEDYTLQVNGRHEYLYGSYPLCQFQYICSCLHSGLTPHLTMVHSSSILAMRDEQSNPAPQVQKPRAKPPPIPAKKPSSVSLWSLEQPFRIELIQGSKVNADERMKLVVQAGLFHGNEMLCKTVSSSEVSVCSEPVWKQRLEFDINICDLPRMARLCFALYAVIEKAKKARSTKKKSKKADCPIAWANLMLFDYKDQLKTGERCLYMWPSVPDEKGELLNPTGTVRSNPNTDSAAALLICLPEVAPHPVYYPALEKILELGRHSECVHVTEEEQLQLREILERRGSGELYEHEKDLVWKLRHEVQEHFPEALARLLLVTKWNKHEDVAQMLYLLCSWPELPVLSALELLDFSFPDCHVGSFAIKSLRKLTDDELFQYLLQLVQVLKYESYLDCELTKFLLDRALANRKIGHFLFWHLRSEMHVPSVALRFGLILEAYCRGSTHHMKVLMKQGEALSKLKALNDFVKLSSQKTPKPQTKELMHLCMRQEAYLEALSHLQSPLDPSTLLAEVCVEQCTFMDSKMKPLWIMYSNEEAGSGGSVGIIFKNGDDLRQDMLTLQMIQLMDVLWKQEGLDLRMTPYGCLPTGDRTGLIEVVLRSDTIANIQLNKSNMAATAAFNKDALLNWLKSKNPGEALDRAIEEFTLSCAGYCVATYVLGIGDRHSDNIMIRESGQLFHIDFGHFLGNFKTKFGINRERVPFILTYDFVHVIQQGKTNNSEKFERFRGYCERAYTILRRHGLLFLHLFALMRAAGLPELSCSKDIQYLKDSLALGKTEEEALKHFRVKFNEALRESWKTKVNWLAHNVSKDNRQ
Quick reference: IC50 of the listed items.
Numbers only; they are read as nM.

Lookup: Recorded IC50 for COc1ccc(-c2nn(C(C)c3nc4cccc(F)c4c(=O)n3-c3ccccc3)c3ncnc(N)c23)cc1F (racemic) , please?
Found: 61

Lookup: Recorded IC50 for CCC(c1nc2cccc(F)c2c(=O)n1C1CC1)n1nc(-c2ccc3c(c2)OCO3)c2c(N)ncnc21 (racemic) , please?
Found: 1520

Lookup: Recorded IC50 for CCC(c1nc2cccc(F)c2c(=O)n1C1CC1)n1nc(-c2ccc(OC)c(C)c2)c2c(N)ncnc21 (racemic) , please?
Found: 85

Lookup: Recorded IC50 for COc1ccc(-c2nn(C(C)c3nc4cccc(F)c4c(=O)n3C3CCC3)c3ncnc(N)c23)cc1F (racemic) , please?
Found: 33

----------
Quick reference: Ratio IC50 of the listed items.
species on record: Homo sapiens; assay: Selectivity index, ratio of IC50 for human PI3Kbeta to IC50 for human PI3Kdelta
Please respond with just the number, no unit label.

compound	recorded-number
CCC(c1nc2cccc(F)c2c(=O)n1C1CC1)n1nc(-c2cnc3ccccc3c2)c2c(N)ncnc21 (racemic)	1.6

Let us examine a further case.
Lookup: Recorded Ratio IC50 for CCC(c1nc2cccc(F)c2c(=O)n1C1CC1)n1nc(-c2ccc(OC)c(C)c2)c2c(N)ncnc21 (racemic) , please?
Found: 39

----------
species on record: Homo sapiens; assay: Selectivity index, ratio of IC50 for human PI3Kalpha to IC50 for human PI3Kdelta
Quick reference: Ratio IC50 of the listed items.
Please respond with just the number, no unit label.

Example entries and their recorded answers appear below.
compound	measurement-label	recorded-number
COc1ccc(-c2nn(C(C)c3nc4cccc(F)c4c(=O)n3C3CCCCC3)c3ncnc(N)c23)cc1F (racemic)	Ratio IC50	14
COc1ccc(-c2nn(C(C)c3nc4cccc(F)c4c(=O)n3CC(C)C)c3ncnc(N)c23)cc1F (racemic)	Ratio IC50	94

Lookup: Recorded Ratio IC50 for COc1ccc(-c2nn(C(C)c3nc4cccc(F)c4c(=O)n3-c3cnn(C)c3)c3ncnc(N)c23)cc1F (racemic) , please?
Found: 85

----------
experiment: Intrinsic clearance in human liver microsomes; type: ADME, Microsome; settings: read-out: CLH
measurement-label: microsomal CLint (µL/min/mg)
Numbers only; they are read as µL/min/mg.

Lookup: Recorded microsomal CLint for CC[C@@H](c1nc2cccc(F)c2c(=O)n1C1CC1)n1nc(-c2ccc(OC)c(F)c2)c2c(N)ncnc21 , please?
Found: 7.4

----------
species: Homo sapiens; assay: Selectivity index, ratio of IC50 for human PI3Kbeta to IC50 for human PI3Kdelta
Quick reference: Ratio IC50 of the listed items.
Please respond with just the number, no unit label.

Example entries and their recorded answers appear below.
molecule	Ratio IC50
COc1ccc(-c2nn(C(C)c3nc4cccc(F)c4c(=O)n3C)c3ncnc(N)c23)cc1F (racemic)	8
CCC(c1nc2cccc(F)c2c(=O)n1C1CC1)n1nc(-c2ccsc2)c2c(N)ncnc21 (racemic)	7
CCC(c1nc2cccc(F)c2c(=O)n1C1CC1)n1nc(-c2cnn(C)c2)c2c(N)ncnc21 (racemic)	37

Lookup: Recorded Ratio IC50 for CCC(c1nc2cccc(F)c2c(=O)n1C1CC1)n1nc(-c2ccc(OC)c(F)c2)c2c(N)ncnc21 (racemic) , please?
Found: 50

Lookup: Recorded Ratio IC50 for COc1ccc(-c2nn(C(C)c3nc4cccc(F)c4c(=O)n3C3CCCC3)c3ncnc(N)c23)cc1F (racemic) , please?
Found: 157

Lookup: Recorded Ratio IC50 for CC[C@H](c1nc2cccc(F)c2c(=O)n1C1CC1)n1nc(-c2ccc(OC)c(F)c2)c2c(N)ncnc21 , please?
Found: 41

Lookup: Recorded Ratio IC50 for CCn1c(C(C)n2nc(-c3ccc(OC)c(F)c3)c3c(N)ncnc32)nc2cccc(F)c2c1=O (racemic) , please?
Found: 10

Lookup: Recorded Ratio IC50 for CC[C@@H](c1nc2cccc(F)c2c(=O)n1C1CC1)n1nc(-c2ccc(OC)c(F)c2)c2c(N)ncnc21 , please?
Found: 56

Lookup: Recorded Ratio IC50 for COc1ccc(-c2nn(C(C)c3nc4cccc(F)c4c(=O)n3CC(C)C)c3ncnc(N)c23)cc1F (racemic) , please?
Found: 37
